System: HS 578T breast
Assay overview: NCI tumour cell line growth inhibition, 48 h; in the data active = GI50 below about 0.43 µM; inactive = the rest
Respond with a class label; see label 1 (active), label 0 (inactive)

Check out these entries, answers already filled in.
O=c1c2cc(F)ccc2sc2c(NCCCNCCO)nc3ccc(F)cc3c12    label 0
FC(F)(F)c1ccc(-c2cnc(-c3nn[nH]n3)nc2NC2CCCCCC2)cc1    label 0
CN(C)c1ccc(-c2cc(-c3cccc(NS(C)(=O)=O)c3)nc(N)c2C#N)cc1    label 1

## Task What is the recorded call for this compound in the test? CCCCCCCCCCCCNC(=O)N[C@H](C(=O)N[C@H]1/C=C/OCCNC(=O)/C=C/[C@H](C(C)C)NC1=O)C(C)C
## Result label 0

###

Here, each record is paired with measured TGI data.
Tested on: RXF 393 renal
Assay overview: NCI tumour cell line growth inhibition, 48 h

COC(=O)c1nc2n(n1)-c1ccccc1C(=O)N(Cc1ccccc1)C2    > 100 µM
C/C(=C\COP(=O)(O)CP(=O)(O)O)CC/C=C(\C)CNc1ccccc1    > 100 µM
Cc1nnc(NS(=O)(=O)c2ccc(N=Nc3c(O)c(C(=O)O)cc4ccccc34)cc2)s1    > 100 µM

## Task For CN(C)CCC(C#N)(c1ccccc1)c1ccccc1 , what is its reported TGI?
## Result > 100 µM

## Task Next record, please: CCOC(=O)c1cn2c(n1)sc1cc([N+](=O)[O-])ccc12
## Result > 100 µM

## Task Record: CCc1ccc2cc3c(ccc4ccccc43)c3c2c1CC3
## Result > 100 µM

###

# TGI values compiled below
System: MALME-3M melanoma
Assay overview: NCI tumour cell line growth inhibition, 48 h

// solved cases for TGI follow
CCCCP1(=O)C=CC(Cl)=C(C)C1 (stereo not given)    > 100 µM
C=C(C)[C@@H]1CC[C@]2(C(=O)OC)CC[C@]3(C)[C@H](CC[C@@H]4[C@@]5(C)CC/C(=N\OCCC(=NCCC#N)NOCCC#N)C(C)(C)[C@@H]5CC[C@]43C)[C@@H]12    > 50 µM
COc1cc(CC2c3cc(OC)c(OC)cc3CCN2C)c(C(=O)O)cc1OC (stereo not given)    > 100 µM

## Task What value of TGI has been reported for the following compound? O=c1cc(O)c1=O
## Result > 100 µM

## Task One more compound: COC(=O)[C@@H](C)C[C@H](Cc1ccccc1)NC(=O)c1nc([C@@H](C[C@H](C(C)C)N(C)C(=O)[C@@H](NC(=O)[C@H]2CC(=O)CCN2C)C(C)C)OC(C)=O)sc1C(C)C
## Result > 16.7 µM

###

Tested on: UACC-257 melanoma
Assay overview: NCI tumour cell line growth inhibition, 48 h
Readout label: TGI

// known answers, use as guide
CCOC(=O)c1cn2c(n1)sc1cc([N+](=O)[O-])ccc12    > 100 µM
COc1cc(F)c(F)c(F)c1C(=O)c1cnc(NC2CCN(S(C)(=O)=O)CC2)nc1N    14 µM

Next compound, please.
## Task Give recorded TGI with UACC-257 melanoma for the following compound: CC(C)c1cc(C(C)C)c(S(=O)(=O)N/N=C2\CC3CCC2(C)C3(C)C)c(C(C)C)c1 (stereo not drawn)
## Result 26.2 µM

// provenance: PubChem BioAssay (NCI)
